- System: A498
- experimental_details: NCI tumour cell line growth inhibition, 48 h
The source made the active and inactive calls. No stated cut-off is given here; in the data, active = GI50 up to about 1.1 µM and inactive = higher.

compound: O=C1NC(=O)C(CCC(=O)c2cccc3ccccc23)C(=O)N1
GI50: > 100 µM (inactive)

compound: CCNC(=O)Cc1nc2c(O)ncnc2n1C1OC(CO)C(O)C1O (stereo unspecified)
GI50: > 100 µM (inactive)

compound: COc1ccccc1C1C(C(=O)O)=C(CO)Oc2cc3c(cc21)OCO3 (stereo unspecified)
GI50: > 100 µM (inactive)

compound: O=c1c2sc3ccccc3sc=2c(=O)c2c(Cl)c(Cl)c(Cl)c(Cl)c12
GI50: > 100 µM (inactive)

compound: Cc1ccccc1NC(=O)C(=O)C1CN(c2ccccc2)N=C1N (stereo unspecified)
GI50: > 100 µM (inactive)

compound: CCCCN1C(=O)C2Cc3c([nH]c4ccccc34)C(c3cccc(O)c3)N2C1=O (stereo unspecified)
GI50: 18.5 µM (inactive)

compound: Cc1cccc(Nc2cn(COCc3ccccc3)c(=O)[nH]c2=O)c1
GI50: > 100 µM (inactive)

compound: COc1ccc(C2C(C#N)=C(S)N(C3OC(CO)C(O)C(O)C3O)C(C)=C2C(C)=O)cc1 (stereo unspecified)
GI50: > 100 µM (inactive)

compound: CCCCCCCCCCCCCCCCCC[N+](C)(C)Cc1ccc(C[N+](C)(C)CCCCCCCCCCCCCCCCCC)cc1
GI50: 22.8 µM (inactive)

compound: O=C1c2sc(-c3ccc(Cl)cc3)cc2-n2cccc21
GI50: > 100 µM (inactive)

compound: O=NN(CCF)C(=O)NC1CCSCC1
GI50: > 100 µM (inactive)

----------
- Test system: NCI-H522
- experimental_details: NCI tumour cell line growth inhibition, 48 h
Active and inactive are the calls of the source. Cut-off read from the data, not from the text of the source: active = GI50 up to about 1.1 µM and inactive = higher.
Outcomes: active, inactive

compound: Cc1cccc2c(N)c3cccc(C(=O)NCC[N+](C)(C)Cc4ccccc4[N+](=O)[O-])c3nc12
label_class: inactive

compound: O=C1c2ccccc2C(=O)N1C/C=N/NS(=O)(=O)c1ccc(F)cc1
label_class: inactive

compound: CCCCc1ccc(-n2c3nc(=O)n(C)c(=O)c-3nc3ccccc32)cc1
label_class: inactive

compound: CCN1C(=O)/C(=C2\SC(c3ccccc3)(c3ccccc3)c3ccccc32)SC1=S
label_class: inactive

compound: Cn1c(=O)n2n(c1=O)Cc1cccc3cccc(c13)C2
label_class: inactive

compound: CCCCCCCCCCCCC(O)C1CCC(C(O)CCCCC(O)CCCCCC2CC(CC(C)=O)C(=O)O2)O1 (stereo unspecified)
label_class: inactive

compound: CC1C2CC(CC2N)C1(C)C (stereo unspecified)
label_class: inactive

compound: S=C(NCc1ccccn1)N/N=C/c1ccccn1
label_class: active

compound: COc1ccc(NC2Oc3cc4c(cc3C(c3cccc(OC)c3OC)C2C)OCO4)cc1 (stereo unspecified)
label_class: inactive

compound: COC(=O)c1c(O)ccc2[nH]c3c(O)c4ccccc4cc3c12
label_class: inactive

compound: CN(CCO)c1nc(=O)c2c([nH]1)CCC2
label_class: inactive

----------
GI50 for assorted compounds
- Test system: IGROV-1
- experimental_details: NCI tumour cell line growth inhibition, 48 h
The source made the active and inactive calls. Rule as the data show it: active = GI50 up to about 1.1 µM and inactive = higher.

compound: CCNC(=O)Cc1nc2c(O)ncnc2n1C1OC(CO)C(O)C1O (configuration not stated)
GI50: > 100 µM (inactive)
//
compound: CC(=N\N)/C(C)=N/N=C(C)/C(C)=N/N
GI50: > 100 µM (inactive)
//
compound: C[N+]1([O-])CCC(O)(C2CC2)CC1 (configuration not stated)
GI50: > 100 µM (inactive)
//
compound: Fc1ccccc1C1SCc2nc3cc4ccccc4cc3n21 (configuration not stated)
GI50: 62.5 µM (inactive)
//
compound: COc1ccc2c(c1)CCCc1c-2nc2ccccc2c1N
GI50: 12.4 µM (inactive)
//
compound: C/C=C1\CN(C(=O)OC(C)(C)C)C1C(=O)OC(C)(C)C (configuration not stated)
GI50: > 100 µM (inactive)
//
compound: COc1ccc(NC2=NCCO2)c2ccccc12
GI50: > 10 µM (inactive)
//
compound: COc1nc2ncc([C@@H](O)[C@H](O)CO)nc2c(=O)[nH]1
GI50: > 100 µM (inactive)
//
compound: CCCCC1=CSC(c2ccccc2)=C(c2ccccc2)S1
GI50: > 100 µM (inactive)
//
compound: CC1CN=C(N(C(=O)Nc2ccc(Cl)c(Cl)c2)c2ccccc2)S1 (configuration not stated)
GI50: > 100 µM (inactive)
//
compound: CN(C)NC1=NS(=O)(=O)c2cc3c(cc2S1)N(N(C)C)C(=O)c1cc2c(cc1N(N(C)C)C3=O)SC(NN(C)C)=NS2(=O)=O
GI50: > 10 µM (inactive)
//
compound: CCCCN1C(=O)C2Cc3c([nH]c4ccccc34)C(c3cccc(O)c3)N2C1=O (configuration not stated)
GI50: 17.5 µM (inactive)
//
compound: O=C1c2cc([N+](=O)[O-])sc2C(=O)c2cc([N+](=O)[O-])sc21
GI50: 1.56 µM (inactive)
//
compound: CC[C@@]1(O)C(=O)OCc2c1cc1n(c2=O)Cc2c-1nc1ccccc1c2/C=N\NC(=O)C(N)=O
GI50: 4.79 µM (inactive)
//
compound: O=c1c2cc(I)ccc2nc(-c2cccs2)n1Nc1ccccc1
GI50: 1.39 µM (inactive)
//
compound: CCCCSCC(NC(=O)/C=C/c1c(C)[nH]c(=O)[nH]c1=O)C(=O)OC (configuration not stated)
GI50: 84.5 µM (inactive)
//
compound: O=C(NCCNCCCNC(=O)c1cc(-c2ccccc2)nc2ccccc12)c1cccc(OCc2ccccc2)c1OCc1ccccc1
GI50: 1.85 µM (inactive)
//
compound: CN1COCc2c1ccc1cc3ccc4c(c3nc21)COCN4S(C)(=O)=O
GI50: > 100 µM (inactive)
//
compound: C1COCCN1.S=C(S)N1CCOCC1
GI50: 6.76 µM (inactive)
//
compound: COC(=O)c1c[nH]c2c1-c1cc(C(=O)OCc3ccccc3)n(S(=O)(=O)c3ccc(C)cc3)c1C(=O)C2=O
GI50: 0.372 µM (active)
//
compound: COCOCC[C@@H]1CC=CC(NC(=O)OCc2ccccc2)C1/C=C/C(=O)CCC1OCCO1 (some centres not stated)
GI50: 56.6 µM (inactive)
//
compound: COc1ccccc1C1C(C(=O)O)=C(CO)Oc2cc3c(cc21)OCO3 (configuration not stated)
GI50: > 100 µM (inactive)
